# Test system: Mycobacterium tuberculosis
# method.description: Antimycobacterial activity against Mycobacterium tuberculosis H37Rv assessed as growth inhibition in presence of 7H9 nutrient-rich media
# Assay type: functional
The molecules listed here are annotated with their MIC.

record.smiles: CCOP(=O)(CCCCCN(O)C(C)=O)OCC
MIC: > 200 mg/L
//
record.smiles: CC(=O)N(O)CCCCP(=O)([O-])O.[Na+]
MIC: > 200 mg/L
//
record.smiles: CCOP(=O)(CCN(O)C(C)=O)OCC
MIC: > 500 mg/L
//
record.smiles: CCOP(=O)(/C=C/CN(O)C(C)=O)OCC
MIC: > 200 mg/L
//
record.smiles: CC(=O)N(O)C/C=C/P(=O)(OCOC(=O)C(C)(C)C)OCOC(=O)C(C)(C)C
MIC: 9.4 mg/L
//
record.smiles: CC(=O)N(O)CCCCCP(=O)([O-])O.[Na+]
MIC: > 200 mg/L
//
record.smiles: CC(=O)N(O)C/C=C/P(=O)([O-])O.[Na+]
MIC: > 200 mg/L
//
record.smiles: CCOP(=O)(CCCCN(O)C(C)=O)OCC
MIC: > 200 mg/L
//
record.smiles: CC(=O)N(O)CCCCP(=O)(OCOC(=O)C(C)(C)C)OCOC(=O)C(C)(C)C
MIC: ≥ 200 mg/L
//
record.smiles: CC(=O)N(O)CCP(=O)([O-])O.[Na+]
MIC: > 200 mg/L
//
record.smiles: CCOP(=O)(CCN(O)C=O)OCC
MIC: > 500 mg/L
